assay: Drug concentration at steady state in fasted human plasma at 800 mg, po every 24 hrs measured on day 8; format: ADME, organism-based; conditions: read-out: Drug uptake
PROPERTY_LABEL: concentration at 24 h (ng/mL)
Your answer is read as ng/mL, so omit the unit and give the number.

The reported concentration at 24 h of the compound O=C(CSc1nnc(Br)n1-c1ccc(C2CC2)c2ccccc12)Nc1ccc(C(=O)O)cc1Cl was 310

* * *

test: Drug excretion in rhesus monkey urine; type: ADME, Macaca mulatta; conditions: read-out: Activity
PROPERTY_LABEL: dose excreted

The reported dose excreted of the molecule O=C(CSc1nnc(Br)n1-c1ccc(C2CC2)c2ccccc12)Nc1ccc(C(=O)O)cc1Cl was < 0.06%

* * *

test: Tmax in fasted human at 1000 mg, po every 24 hrs measured on day 8; type: ADME, organism-based; details: in vivo
PROPERTY_LABEL: Tmax (h)
Your answer is read as h, so omit the unit and give the number.

The reported Tmax of the compound O=C(CSc1nnc(Br)n1-c1ccc(C2CC2)c2ccccc12)Nc1ccc(C(=O)O)cc1Cl was 3

* * *

assay: Tmax in fasted human plasma at 50 to 300 mg; assay type: ADME, organism-based
PROPERTY_LABEL: Tmax (h)
Your answer is read as h, so omit the unit and give the number.

The reported Tmax of the compound O=C(CSc1nnc(Br)n1-c1ccc(C2CC2)c2ccccc12)Nc1ccc(C(=O)O)cc1Cl was 1.25

* * *

experiment: Drug concentration at steady state in fasted human plasma 600 mg, po every 24 hrs measured on day 8; format: ADME, organism-based; conditions: read-out: Drug uptake
PROPERTY_LABEL: concentration at 24 h (ng/mL)
Your answer is read as ng/mL, so omit the unit and give the number.

The reported concentration at 24 h of the molecule O=C(CSc1nnc(Br)n1-c1ccc(C2CC2)c2ccccc12)Nc1ccc(C(=O)O)cc1Cl was 276

* * *

test: Half life in fasted human at 600 mg, po every 24 hrs measured on day 8; assay type: ADME, organism-based; conditions: in vivo
PROPERTY_LABEL: half-life (min)
Your answer is read as min, so omit the unit and give the number.

The reported half-life of the compound O=C(CSc1nnc(Br)n1-c1ccc(C2CC2)c2ccccc12)Nc1ccc(C(=O)O)cc1Cl was 425

* * *

experiment: Drug concentration at steady state in fasted human plasma at 1000 mg, po every 24 hrs measured on day 8; assay type: ADME, organism-based; settings: read-out: Drug uptake
PROPERTY_LABEL: concentration at 24 h (ng/mL)
Your answer is read as ng/mL, so omit the unit and give the number.

The reported concentration at 24 h of the compound O=C(CSc1nnc(Br)n1-c1ccc(C2CC2)c2ccccc12)Nc1ccc(C(=O)O)cc1Cl was 515

* * *

experiment: Terminal half life […] at 300 to 500 mg; assay type: ADME
PROPERTY_LABEL: half-life (h)
Your answer is read as h, so omit the unit and give the number.

The reported half-life of the compound O=C(CSc1nnc(Br)n1-c1ccc(C2CC2)c2ccccc12)Nc1ccc(C(=O)O)cc1Cl was 10.4

* * *

assay: Cmax in human plasma at 500 mg administered as multiple doses, BID; assay type: ADME, organism-based; parameters: dose 500 mg
PROPERTY_LABEL: Cmax (ng/mL)
Your answer is read as ng/mL, so omit the unit and give the number.

The reported Cmax of the compound O=C(CSc1nnc(Br)n1-c1ccc(C2CC2)c2ccccc12)Nc1ccc(C(=O)O)cc1Cl was 746
